# measured-target: pERK1/2 (Thr202/Tyr204), NCI-1H441 (KRAS G12V) (Homo sapiens, UniProt P01116, G12V)
# Construct: pERK1/2 HTRF read-out
# Sequence (P01116 1-188 isoform P01116-2 G12V): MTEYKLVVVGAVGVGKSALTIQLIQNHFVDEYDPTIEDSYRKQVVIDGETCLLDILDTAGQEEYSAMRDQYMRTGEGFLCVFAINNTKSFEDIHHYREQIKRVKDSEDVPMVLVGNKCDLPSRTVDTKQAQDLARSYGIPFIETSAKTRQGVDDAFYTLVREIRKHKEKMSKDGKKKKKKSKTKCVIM
# assay-explanation: Assay of intracellular pERK1/2 (Thr202/Tyr204) phosphorylation in NCI-H441 cells (KRAS G12V)
# Format: cell-based
# setup-conditions: pERK1/2, 2 days, read-out: NCI-H441 (KRAS G12V) IC50
Each item that follows carries a reported IC50.

Please review the following examples before continuing.
compound: [2H]C1([2H])CC[C@@]2(C([2H])([2H])Oc3nc4c5c(nc(-c6cc(O)cc(Cl)c6C6CC6)c(F)c5n3)OCCN4[C@H](C)c3cccnc3N)C[C@@H](F)CN12 (single isomer, unassigned) [Compound 130]
measured-target: pERK1/2 (Thr202/Tyr204), NCI-1H441 (KRAS G12V) (Homo sapiens, UniProt P01116, G12V)
IC50: > 100 nM
//
compound: [2H]C([2H])(Oc1nc2c3c(nc(-c4cc(N)cc(C)c4C(F)(F)F)c(F)c3n1)OCCN2C(C)c1cccnc1N)[C@@H]1CCC([2H])([2H])N1C([2H])([2H])[2H] (single isomer, unassigned) [Compound 103]
measured-target: pERK1/2 (Thr202/Tyr204), NCI-1H441 (KRAS G12V) (Homo sapiens, UniProt P01116, G12V)
IC50: > 100 nM

Consider the additional compound presented here.
Task item: Requested field: IC50. Item: Cc1cc(Nc2nc3c4c(nc(OC[C@@]56CCCN5C[C@H](F)C6)nc4c2F)N(C(C)c2cccnc2N)CCO3)c(F)cc1C(F)(F)F (stereo partly drawn) [Compound 162]
Reply: > 100 nM

---

# measured-target: pERK1/2 (Thr202/Tyr204), PANC-1 (KRAS G121D) (Homo sapiens, UniProt P01116, G12D)
# Construct: pERK1/2 HTRF read-out
# Sequence (P01116 1-188 isoform P01116-2 G12D): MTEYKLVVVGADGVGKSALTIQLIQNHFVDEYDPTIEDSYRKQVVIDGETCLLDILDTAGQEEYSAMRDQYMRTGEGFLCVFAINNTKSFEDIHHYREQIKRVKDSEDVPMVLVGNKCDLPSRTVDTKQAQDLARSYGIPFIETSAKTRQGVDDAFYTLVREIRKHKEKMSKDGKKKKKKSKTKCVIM
# assay-explanation: Assay of intracellular pERK1/2 (Thr202/Tyr204) phosphorylation in PANC-1 cells (KRAS G12D)
# Format: cell-based
# setup-conditions: pERK1/2, 2 days, read-out: PANC-1 (KRAS G12D) IC50
# From the text: Example 2: Assay of intracellular pERK1/2 (Thr202/Tyr204)phosphorylation 1. […] Fluorescence ratio=fluorescence value665 nm/fluorescence value615 nm Inhibition rate (%)=100−((fluorescence ratio of compound well−fluorescence ratio of negative control well)/(fluorescence ratio of positive control well−fluorescence ratio of negative control well))×100 […]
pIC50: −log10 of the molar value.
# pIC50 per entry

compound: CC(c1cccnc1N)N1CCOc2nc(-c3cc(O)cc(Cl)c3C3CC3)c(F)c3nc(OC[C@@H]4CCCN4C)nc1c23 (single isomer, unassigned) [Compound 31]
measured-target: pERK1/2 (Thr202/Tyr204), PANC-1 (KRAS G121D) (Homo sapiens, UniProt P01116, G12D)
pIC50: < 6.00

Task item: # input compound: CC(c1cccnc1N)N1CCOc2nc(-c3cccc4sc(N)nc34)c(F)c3nc(OC[C@@H]4CCN4CC(F)F)nc1c23 (stereo partly drawn) ; wanted: its pIC50
Reply: < 6.00

Task item: Look up pIC50 for this compound: CC(c1cccnc1N)N1c2nc(OC[C@@]34CCCN3C[C@H](F)C4)nc3c(F)c(-c4ccc(F)c5sc(N)c(C(N)=O)c45)nc(c23)OC[C@@H]1C (stereo partly drawn)
Reply: < 7.00

Task item: Which pIC50 is reported for this compound? [2H]C1([2H])CN(C(C)c2cccnc2N)c2nc(OC[C@@]34CCCN3C[C@H](F)C4)nc3c(F)c(-c4cc(N)cc(C)c4C(F)(F)F)nc(c23)O1 (single isomer, unassigned) [Compound 154]
Reply: < 7.00

Task item: Please look up its pIC50: [2H]C1([2H])CN(C([2H])(C)c2cccnc2N)c2nc(OC[C@@]34CCCN3C[C@H](F)C4)nc3c(F)c(-c4cc(N)cc(C)c4C(F)(F)F)nc(c23)O1 (stereo partly drawn)
Reply: < 7.00

Task item: Give the measured pIC50 of Cc1ccnc(N)c1C(C)N1CCOc2nc(-c3cc(N)c(F)c(C)c3C(F)(F)F)c(F)c3nc(OC[C@@]45CCCN4C[C@H](F)C5)nc1c23 (single isomer, unassigned) [Compound 258] .
Reply: < 7.00

---

# measured-target: pERK1/2 (Thr202/Tyr204), NCI-1H441 (KRAS G12V) (Homo sapiens, UniProt P01116, G12V)
# Construct: pERK1/2 HTRF read-out
# assay-explanation: Assay of intracellular pERK1/2 (Thr202/Tyr204) phosphorylation in NCI-H441 cells (KRAS G12V)
# Assay type: cell-based
# setup-conditions: pERK1/2, 2 days, read-out: NCI-H441 (KRAS G12V) IC50
attribute-measured: IC50

Worked examples, 2 compounds total:
compound: CC(c1cccnc1N)N1c2nc(OC[C@@]34CCCN3C[C@H](F)C4)nc3c(F)c(N4CC(O)Cc5ccccc54)nc(c23)OC[C@@H]1C (some centres unmarked) [Compound 331]
IC50: > 100 nM

compound: CC(c1cccnc1N)N1c2nc(OC[C@@]34CCCN3C[C@H](F)C4)nc3c(F)c(-c4c5ccccc5cc5[nH]ncc45)nc(c23)O[C@H]2CCC[C@@H]21 (some centres unmarked) [Compound 398]
IC50: 472 nM

Task item: Consider the compound shown here: CC(c1cccnc1N)N1c2nc(OC[C@@]34CCCN3C[C@H](F)C4)nc3c(F)c(-c4c(C(F)(F)F)ccc5[nH]ncc45)nc(c23)OC[C@@H]1C (some centres unmarked) [Compound 297] What is its recorded IC50?
Reply: 1 nM

Task item: For the compound Cc1cc(N)cc(-c2nc3c4c(nc(OC[C@@H]5CCCN5)nc4c2F)N(C(C)c2cccnc2N)CCO3)c1C(F)(F)F (single isomer, unassigned) [Compound 106] , what IC50 is on record?
Reply: > 100 nM

Task item: Would you mind telling me what IC50 value was observed for Cc1c(F)c(N)cc(-c2nc3c4c(nc(OC[C@@H]5CCCN5C)nc4c2F)N(C(C)c2cccnc2N)CCO3)c1C(F)(F)F (single isomer, unassigned) [Compound 86] ?
Reply: 43 nM

---

# measured-target: pERK1/2 (Thr202/Tyr204), PANC-1 (KRAS G121D) (Homo sapiens, UniProt P01116, G12D)
# Construct: pERK1/2 HTRF read-out
# assay-explanation: Assay of intracellular pERK1/2 (Thr202/Tyr204) phosphorylation in PANC-1 cells (KRAS G12D)
# Type: cell-based
# setup-conditions: pERK1/2, 2 days, read-out: PANC-1 (KRAS G12D) IC50
# From the text: Example 2: Assay of intracellular pERK1/2 (Thr202/Tyr204)phosphorylation 1. […] Fluorescence ratio=fluorescence value665 nm/fluorescence value615 nm Inhibition rate (%)=100−((fluorescence ratio of compound well−fluorescence ratio of negative control well)/(fluorescence ratio of positive control well−fluorescence ratio of negative control well))×100 […]
attribute-measured: pIC50
Would you please state pIC50, meaning minus log10 of the concentration in mol/L, as a bare number?

// below: answered compounds
compound: CC(c1cccnc1N)N1CCOc2nc(-c3cc(O)cc(Cl)c3C3CC3)c(F)c3nc(OC[C@@H]4CCN4CC(F)F)nc1c23 (single isomer, unassigned) [Compound 21]
observed: 7.09
//
compound: CC(c1cccnc1N)N1CCOc2nc(-c3cc(N)c(F)cc3C(F)(F)F)c(F)c3nc(OC[C@@]45CCCN4C[C@H](F)C5)nc1c23 (single isomer, unassigned) [Compound 144]
observed: 7.77

Please examine the following record next.
Task item: If you can, please state the reported pIC50 value of Cc1ccc2[nH]nc(C)c2c1-c1nc2c3c(nc(OC[C@@]45CCCN4C[C@H](F)C5)nc3c1F)N(C(C)c1cccnc1N)[C@@H](C)CO2 (stereo partly drawn) .
Reply: 8.00

---

# measured-target: pERK1/2 (Thr202/Tyr204), PANC-1 (KRAS G121D) (Homo sapiens, UniProt P01116, G12D)
# Construct: pERK1/2 HTRF read-out
# assay-explanation: Assay of intracellular pERK1/2 (Thr202/Tyr204) phosphorylation in PANC-1 cells (KRAS G12D)
# Format: cell-based
# setup-conditions: pERK1/2, 2 days, read-out: PANC-1 (KRAS G12D) IC50
// reported IC50 per item

These recorded examples may help you get a feel for the data.
compound: C#Cc1c(Cl)cc(N)cc1-c1nc2c3c(nc(OC[C@@H]4CCCN4C)nc3c1F)N(C(C)c1cccnc1N)CCO2 (stereo partly shown)
attribute-measured: IC50
observed: > 100 nM
--
compound: CSc1nc2c3c(nc(-c4cc(O)cc5ccc(F)c(F)c45)c(F)c3n1)OCCN2C(C)c1cccnc1N (stereo not shown)
attribute-measured: IC50
observed: > 1000 nM
--
compound: CC(c1cccnc1N)N1c2nc(OC[C@@]34CCCN3C[C@H](F)C4)nc3c(F)c(-c4cccc5nc(N)nn45)nc(c23)OC[C@@H]1C (stereo partly shown)
attribute-measured: IC50
observed: > 100 nM

Task item: Provide value of IC50 for this record tested with pERK1/2 (Thr202/Tyr204), PANC-1 (KRAS G121D) (Homo sapiens, UniProt P01116, G12D): Cc1c(F)c(N)cc(-c2nc3c4c(nc(OC[C@@]56CCCN5C[C@H](F)C6)nc4c2F)N([C@H](C)c2cn(C)nc2N)CCO3)c1C(F)(F)F (single isomer, unassigned)
Reply: > 100 nM

Task item: Notebook entry, pERK1/2 (Thr202/Tyr204), PANC-1 (KRAS G121D) (Homo sapiens, UniProt P01116, G12D) assay: IC50 of Cc1cc2[nH]ncc2c(-c2nc3c4c(nc(OC[C@@H]5CCN5CC(F)F)nc4c2F)N(C(C)c2cccnc2N)CCO3)c1C (stereo partly shown) = ?
Reply: > 1000 nM

Task item: # returns recorded IC50 (system: pERK1/2 (Thr202/Tyr204), PANC-1 (KRAS G121D) (Homo sapiens, UniProt P01116, G12D)) for CCOc1nc2c3c(nc(-c4cc(O)cc5ccc(F)c(F)c45)c(F)c3n1)OCCN2C(C)c1cccnc1N (stereo not shown)
Reply: > 1000 nM

Task item: Missing value: IC50, pERK1/2 (Thr202/Tyr204), PANC-1 (KRAS G121D) (Homo sapiens, UniProt P01116, G12D), entry CC(c1cccnc1N)N1CCOc2nc(-c3cc(O)cc4ccc(F)c(F)c34)c(F)c3nc(OC[C@@H]4COCCN4)nc1c23 (stereo partly shown) . Fill in?
Reply: > 1000 nM
